Target: alcohol dehydrogenase from L. brevis (Levilactobacillus brevis)
Sequence (Q84EX5 2-252): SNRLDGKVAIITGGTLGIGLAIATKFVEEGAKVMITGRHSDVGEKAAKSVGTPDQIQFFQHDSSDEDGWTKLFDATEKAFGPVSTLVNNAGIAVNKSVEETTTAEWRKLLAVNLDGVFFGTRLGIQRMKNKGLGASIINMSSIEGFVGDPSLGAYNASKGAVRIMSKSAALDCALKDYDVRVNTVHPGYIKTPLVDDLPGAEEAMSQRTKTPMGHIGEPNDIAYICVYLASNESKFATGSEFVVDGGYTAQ
Test: biochemical
Type: biochemical
Settings: 10 mM keto compound, 0.19 mM NADPH, pH 7.0, purified enzyme diluted 1:10
Values of Activity strictly less than 3 U/ml map to yes (1), and values of at least 3 U/ml map to no (0).

[
  {
    "compound": "CCOC(=O)CC(=O)c1ccccc1",
    "assigned label": "yes (1)"
  },
  {
    "compound": "CC(=O)c1ccc(Cl)cc1",
    "assigned label": "no (0)"
  },
  {
    "compound": "CC(=O)c1ccccc1Cl",
    "assigned label": "yes (1)"
  },
  {
    "compound": "CC(=O)c1ccccc1",
    "assigned label": "no (0)"
  },
  {
    "compound": "O=Cc1ccccc1",
    "assigned label": "yes (1)"
  },
  {
    "compound": "CCOC(=O)C(F)(F)F",
    "assigned label": "yes (1)"
  },
  {
    "compound": "CC(=O)c1cccc(Cl)c1",
    "assigned label": "no (0)"
  },
  {
    "compound": "CCC(=O)CC(=O)OC",
    "assigned label": "yes (1)"
  },
  {
    "compound": "CCOC(=O)CCCC(C)=O",
    "assigned label": "yes (1)"
  },
  {
    "compound": "CC(=O)c1cccc2ccccc12",
    "assigned label": "yes (1)"
  },
  {
    "compound": "CCC(=O)c1ccccc1",
    "assigned label": "yes (1)"
  },
  {
    "compound": "C(CCOCC1CO1)COCC1CO1 (centres unmarked)",
    "assigned label": "yes (1)"
  },
  {
    "compound": "CCOC(=O)C(C)=O [ethyl pyruvate]",
    "assigned label": "no (0)"
  },
  {
    "compound": "CC(=O)Cc1ccccc1",
    "assigned label": "yes (1)"
  },
  {
    "compound": "CC(=O)CCCC(=O)O",
    "assigned label": "yes (1)"
  },
  {
    "compound": "COC(=O)CC(C)=O",
    "assigned label": "no (0)"
  },
  {
    "compound": "CCOC(=O)C(=O)CCc1ccccc1 [ethyl-2-oxo-4-phenyl butyrate]",
    "assigned label": "yes (1)"
  },
  {
    "compound": "CCc1ccc(C(C)=O)cc1",
    "assigned label": "yes (1)"
  },
  {
    "compound": "CCOC(=O)CC(=O)C(C)C",
    "assigned label": "yes (1)"
  },
  {
    "compound": "CCCC(=O)CC(=O)OCC [ethylbutyryl acetate]",
    "assigned label": "yes (1)"
  },
  {
    "compound": "CCCCOC(C)=O",
    "assigned label": "yes (1)"
  },
  {
    "compound": "CCOC(=O)CC1CCCCC1=O (centres unmarked)",
    "assigned label": "yes (1)"
  },
  {
    "compound": "CCOC(=O)CC(=O)CC",
    "assigned label": "yes (1)"
  },
  {
    "compound": "CC(=O)CO [hydroxyacetone]",
    "assigned label": "yes (1)"
  },
  {
    "compound": "CCOC(=O)C(=O)CCc1ccccc1 [2-oxo-4-phenylbutyric acid ethyl ester]",
    "assigned label": "no (0)"
  },
  {
    "compound": "CCOC(=O)C(C)C(C)=O (centres unmarked) [ethyl-2-methylacetoacetate]",
    "assigned label": "yes (1)"
  },
  {
    "compound": "CC(=O)CCc1ccccc1",
    "assigned label": "no (0)"
  },
  {
    "compound": "CC1CCCCC1=O (centres unmarked)",
    "assigned label": "no (0)"
  },
  {
    "compound": "COC(=O)C(C)=O [methyl pyruvate]",
    "assigned label": "no (0)"
  },
  {
    "compound": "CC(=O)CC(C)=O",
    "assigned label": "no (0)"
  },
  {
    "compound": "CC(=O)CC(=O)OCc1ccccc1",
    "assigned label": "no (0)"
  },
  {
    "compound": "CCOC(=O)C1CCCCC1=O (centres unmarked)",
    "assigned label": "yes (1)"
  },
  {
    "compound": "CCOC(=O)CC(C)=O",
    "assigned label": "no (0)"
  }
]

# credit: patent US6037158A
